Would you mind telling me the reported PRE Application SETFA, percentage damage on five-point scale of each entry?
- System: Setaria faberi (SETFA)
- run.description: Pre-emergence herbicidal glasshouse test (Table B1)
- Assay type: in vivo
- measurement.parameters: applied at 500 g/h, evaluated after 13 days

Complete the entry with PRE Application SETFA, percentage damage on five-point scale for CCn1nnnc1NC(=O)c1ccc(OC(F)(F)F)c(NC(=O)C(C)F)c1Cl (centres unmarked)
3 (3=40-59%)

Complete the entry with PRE Application SETFA, percentage damage on five-point scale for CNc1c(OC(F)(F)F)ccc(C(=O)Nc2nnnn2C)c1Cl
5 (5=80-100%)

Complete the entry with PRE Application SETFA, percentage damage on five-point scale for CCn1nnnc1NC(=O)c1ccc(OC(F)(F)F)c(NC(=O)CCOC)c1Cl
2 (2=20-39%)

Complete the entry with PRE Application SETFA, percentage damage on five-point scale for CCn1nnnc1NC(=O)c1ccc(OC(F)(F)F)c(NC(=O)c2ccccn2)c1Cl
1 (1=0-19%)

Complete the entry with PRE Application SETFA, percentage damage on five-point scale for CCCC(=O)Nc1c(OC(F)(F)F)ccc(C(=O)Nc2nnnn2C)c1Cl
1 (1=0-19%)

Complete the entry with PRE Application SETFA, percentage damage on five-point scale for CCC(=O)Nc1c(OC(F)(F)C(F)F)ccc(C(=O)Nc2nnnn2CC)c1Cl
1 (1=0-19%)

Complete the entry with PRE Application SETFA, percentage damage on five-point scale for CC(=O)Nc1c(OCC(F)(F)F)ccc(C(=O)Nc2nnnn2C)c1Cl
3 (3=40-59%)

Complete the entry with PRE Application SETFA, percentage damage on five-point scale for CCC(=O)Nc1c(OC(F)(F)F)ccc(C(=O)Nc2nnnn2CC)c1Cl
2 (2=20-39%)

====

Would you mind telling me the reported PRE Application SETFA, percentage damage on five-point scale of each entry?
- Test system: Setaria faberi (SETFA)
- run.description: Pre-emergence herbicidal glasshouse test (Table B1)
- Type: in vivo
- measurement.parameters: applied at 500 g/h, evaluated after 13 days
- Protocol: Seeds of a variety of test species are sown in standard soil in pots (Lolium perenne (LOLPE), Amaranthus retoflexus (AMARE), Abutilon theophrasti (ABUTH), Setaria faberi (SETFA), Echinochloa crus-galh (ECHCG), Ipomoea hederacea (IPOHE)). […] After 13 days for pre and post-emergence, the test is evaluated for the percentage damage caused to the plant. […]

Complete the entry with PRE Application SETFA, percentage damage on five-point scale for CC(F)C(=O)Nc1c(OCC(F)(F)F)ccc(C(=O)Nc2nnnn2C)c1Cl (centres unmarked)
5 (5=80-100%)

Complete the entry with PRE Application SETFA, percentage damage on five-point scale for Cc1ncc(C(=O)Nc2c(OC(F)(F)F)ccc(C(=O)Nc3nnnn3C)c2Cl)s1
2 (2=20-39%)

Complete the entry with PRE Application SETFA, percentage damage on five-point scale for CCn1nnnc1NC(=O)c1ccc(OC(F)F)c(NC(=O)CC2CC2)c1Cl
1 (1=0-19%)

Complete the entry with PRE Application SETFA, percentage damage on five-point scale for COC(C)(C)C(=O)Nc1c(OC(F)(F)F)ccc(C(=O)Nc2nnnn2C)c1Cl
1 (1=0-19%)

Complete the entry with PRE Application SETFA, percentage damage on five-point scale for CC(C)CC(=O)Nc1c(OC(F)(F)F)ccc(C(=O)Nc2nnnn2C)c1Cl
4 (4=60-79%)

Complete the entry with PRE Application SETFA, percentage damage on five-point scale for CCn1nnnc1NC(=O)c1ccc(OC(F)(F)F)c(NC(C)=O)c1Cl
2 (2=20-39%)

Complete the entry with PRE Application SETFA, percentage damage on five-point scale for COc1ccc(C(=O)Nc2nnnn2C)c(Cl)c1NC(C)=O
3 (3=40-59%)

Complete the entry with PRE Application SETFA, percentage damage on five-point scale for CCn1nnnc1NC(=O)c1ccc(OC(F)(F)F)c(NC(=O)COC)c1Cl
1 (1=0-19%)

====

- Test system: Abutilon theophrasti (ABUTH)
- run.description: Post-emergence herbicidal glasshouse test (Table B1)
- Type: in vivo
- measurement.parameters: applied at 125 g/ha, evaluated after 13 days
- Experimental: Seeds of a variety of test species are sown in standard soil in pots (Lolium perenne (LOLPE), Amaranthus retoflexus (AMARE), Abutilon theophrasti (ABUTH), Setaria faberi (SETFA), Echinochloa crus-galh (ECHCG), Ipomoea hederacea (IPOHE)). […] After 13 days for pre and post-emergence, the test is evaluated for the percentage damage caused to the plant. […]
Would you mind telling me the reported POST Application ABUTH, percentage damage on five-point scale of each entry?

Complete the entry with POST Application ABUTH, percentage damage on five-point scale for Cn1nnnc1NC(=O)c1ccc(OC(F)(F)F)c(NC(=O)C2(F)CC2)c1Cl
5 (5=80-100%)

Complete the entry with POST Application ABUTH, percentage damage on five-point scale for CC(C)C(=O)Nc1c(OC(F)F)ccc(C(=O)Nc2nnnn2C)c1Cl
5 (5=80-100%)

Complete the entry with POST Application ABUTH, percentage damage on five-point scale for CCOC(C)C(=O)Nc1c(OC(F)(F)F)ccc(C(=O)Nc2nnnn2C)c1Cl (centres unmarked)
5 (5=80-100%)

Complete the entry with POST Application ABUTH, percentage damage on five-point scale for COc1cccc(C(=O)Nc2c(OC(F)F)ccc(C(=O)Nc3nnnn3C)c2Cl)n1
4 (4=60-79%)

Complete the entry with POST Application ABUTH, percentage damage on five-point scale for Cc1nnc(NC(=O)c2ccc(OC(F)(F)F)c(NC(=O)C3CC3)c2Cl)o1
4 (4=60-79%)

Complete the entry with POST Application ABUTH, percentage damage on five-point scale for COC(C)C(=O)Nc1c(OC(F)(F)F)ccc(C(=O)Nc2nnnn2C)c1Cl (centres unmarked)
5 (5=80-100%)

Complete the entry with POST Application ABUTH, percentage damage on five-point scale for CCC(=O)Nc1c(OC(F)F)ccc(C(=O)Nc2nnnn2C)c1Cl
5 (5=80-100%)

Complete the entry with POST Application ABUTH, percentage damage on five-point scale for Cc1cc(C(=O)Nc2c(OC(F)F)ccc(C(=O)Nc3nnnn3C)c2Cl)no1
3 (3=40-59%)

====

- System: Echinochloa crus-galh (ECHCG)
- run.description: Pre-emergence herbicidal glasshouse test (Table B1)
- Format: in vivo
- measurement.parameters: applied at 125 g/ha, evaluated after 13 days
Would you mind telling me the reported PRE Application ECHCG, percentage damage on five-point scale of each entry?

Complete the entry with PRE Application ECHCG, percentage damage on five-point scale for Cn1nnnc1NC(=O)c1ccc(OC(F)(F)F)c(NC(=O)C(F)F)c1Cl
4 (4=60-79%)

Complete the entry with PRE Application ECHCG, percentage damage on five-point scale for CCOC(C)C(=O)Nc1c(OC(F)(F)F)ccc(C(=O)Nc2nnnn2C)c1Cl (centres unmarked)
5 (5=80-100%)

Complete the entry with PRE Application ECHCG, percentage damage on five-point scale for Cn1nnnc1NC(=O)c1ccc(OC(F)F)c(NC(=O)c2ccc(F)cc2)c1Cl
1 (1=0-19%)

Complete the entry with PRE Application ECHCG, percentage damage on five-point scale for CCOCC(=O)Nc1c(OC(F)(F)F)ccc(C(=O)Nc2nnnn2CC)c1Cl
4 (4=60-79%)

Complete the entry with PRE Application ECHCG, percentage damage on five-point scale for CCn1nnnc1NC(=O)c1ccc(OC(F)(F)F)c(NC(=O)C(C)(F)F)c1Cl
4 (4=60-79%)

Complete the entry with PRE Application ECHCG, percentage damage on five-point scale for CCC(C)C(=O)Nc1c(OC(F)(F)F)ccc(C(=O)Nc2nnnn2CC)c1Cl (centres unmarked)
5 (5=80-100%)

Complete the entry with PRE Application ECHCG, percentage damage on five-point scale for Cn1nnnc1NC(=O)c1ccc(OC(F)F)c(NC(=O)c2ncc(C(F)(F)F)cc2Cl)c1Cl
1 (1=0-19%)

Complete the entry with PRE Application ECHCG, percentage damage on five-point scale for CCn1nnnc1NC(=O)c1ccc(OC(F)F)c(NC(=O)c2cc(OC)ccn2)c1Cl
1 (1=0-19%)

Complete the entry with PRE Application ECHCG, percentage damage on five-point scale for Cc1cc(C(=O)Nc2c(OC(F)(F)F)ccc(C(=O)Nc3nnnn3C)c2Cl)nn1C
5 (5=80-100%)

Complete the entry with PRE Application ECHCG, percentage damage on five-point scale for Cn1nnnc1NC(=O)c1ccc(OC(F)F)c(NC(=O)CC2CC2)c1Cl
5 (5=80-100%)

Complete the entry with PRE Application ECHCG, percentage damage on five-point scale for Cn1nnnc1NC(=O)c1ccc(OC(F)(F)F)c(NC(=O)c2ccccn2)c1Cl
5 (5=80-100%)

Complete the entry with PRE Application ECHCG, percentage damage on five-point scale for CC(=O)Nc1c(OC(F)(F)C(F)F)ccc(C(=O)Nc2nnnn2C)c1Cl
4 (4=60-79%)

Complete the entry with PRE Application ECHCG, percentage damage on five-point scale for CCC(=O)Nc1c(OC(F)(F)F)ccc(C(=O)Nc2nnnn2CC)c1C
5 (5=80-100%)

Complete the entry with PRE Application ECHCG, percentage damage on five-point scale for CCn1nnnc1NC(=O)c1ccc(OC(F)(F)F)c(NC(=O)C(F)F)c1Cl
4 (4=60-79%)

Complete the entry with PRE Application ECHCG, percentage damage on five-point scale for Cn1nnnc1NC(=O)c1ccc(OC(F)F)c(N2CCCCC2=O)c1Cl
5 (5=80-100%)

Complete the entry with PRE Application ECHCG, percentage damage on five-point scale for CCC(=O)Nc1c(OC(F)F)ccc(C(=O)Nc2nnnn2C)c1C
5 (5=80-100%)

Complete the entry with PRE Application ECHCG, percentage damage on five-point scale for CC(=O)Nc1c(OC(F)F)ccc(C(=O)Nc2nnnn2C)c1Cl
5 (5=80-100%)
